Tested on: S. aureus ATCC 13709
Assay: MIC, antibacterial potency, S. aureus
Type: cell-based
Details: S. aureus (SA); in µg/mL
Metric: MIC, SA

Worked examples, 10 molecules total:
>  <Molecule>
CCc1[nH]c2nc(Oc3cncnc3)nc(Oc3cc(N)cc(C#N)c3)c2c1Br

>  <Value measured>
<=0.5

$$$$
>  <Molecule>
CCc1[nH]c2nc(Sc3cncc(S(=O)(=O)N(C)C)c3)nc(N3CC4C(N)C4C3)c2c1Cl (centres unmarked)

>  <Value measured>
2

$$$$
>  <Molecule>
CCc1[nH]c2nc(Oc3ccc4nccnc4c3)nc(Oc3cncnc3)c2c1Br

>  <Value measured>
<=0.5

$$$$
>  <Molecule>
CCc1[nH]c2nc(Sc3cnc4nccnc4c3)nc(N3C[C@@H](O)[C@@H](N)C3)c2c1Cl

>  <Value measured>
32

$$$$
>  <Molecule>
CCc1[nH]c2nc(Sc3ccc4[nH]cc(C(=O)OC)c4c3)nc(N3CC[C@@H](N)C3)c2c1Cl

>  <Value measured>
16

$$$$
>  <Molecule>
CCc1[nH]c2nc(Sc3ccc4c(N5CC(N)C5)ncnc4c3)nc(N3C[C@@H]4[C@H](C3)[C@@]4(N)C(N)=O)c2c1Cl

>  <Value measured>
2

$$$$
>  <Molecule>
CCc1[nH]c2nc(Sc3cccnc3)nc(N3C[C@@H]4[C@@H](N)[C@@H]4C3)c2c1C(F)F

>  <Value measured>
16

$$$$
>  <Molecule>
CCc1[nH]c2nc(Sc3ccc4c(N5CC(CN)C5)nc(C)nc4c3)nc(N3CC4C(C3)C4(N)C(N)=O)c2c1Cl (centres unmarked)

>  <Value measured>
8

$$$$
>  <Molecule>
CCc1[nH]c2nc(Sc3ccc4cc(C(=O)N5CC(O)C5)c(C)[n+]([O-])c4c3)nc(N3CC[C@@H](N)C3)c2c1Cl

>  <Value measured>
16

$$$$
>  <Molecule>
CCc1[nH]c2nc(Oc3ccc[n+]([O-])c3)nc(Oc3cccnc3)c2c1Br

>  <Value measured>
<=0.5

$$$$

Look at each molecule and report its MIC, SA.
1. CCc1[nH]c2nc(Oc3ccc4nccnc4c3)nc(N3CC(CN(C)C)C3)c2c1Cl
2. CCc1[nH]c2nc(Oc3cccc(C#N)c3)nc(C(C)N3CC4C(C3)C4(N)C(N)=O)c2c1Cl (centres unmarked)
3. CCc1[nH]c2nc(Oc3cnc(N)nc3)nc(Oc3cnc(N)nc3)c2c1Br
4. CCc1[nH]c2nc(Sc3cnc4c(c3)c(=O)ncn4C)nc(N3CC4C(N)C4C3)c2c1C (centres unmarked)
5. CCc1[nH]c2nc(Sc3cnc4cccnc4c3)nc(N3CCC(CNS(C)(=O)=O)C3)c2c1Cl (centres unmarked)
6. CCc1[nH]c2nc(Sc3ccc4c(c3)c(=O)c(C#N)cn4CCN(C)C)nc(N3CC[C@@H](N)C3)c2c1Cl
7. NC(=O)C1(N)C2CN(c3nc(Sc4cnc5nccnc5c4)nc4[nH]c(C5CC5)c(Cl)c34)CC21 (centres unmarked)
8. CCc1[nH]c2nc(Sc3ccc4c(c3)c(=O)c(C#N)cn4CCCN(C)C)nc(N3CC[C@@H](N)C3)c2c1Cl

a:
32
64
2
32
<=0.5
2
8
16

Look at each molecule and report its MIC, SA.
1. CCc1[nH]c2nc(Oc3cnc4ccoc4c3)nc(N3CC(N)C3)c2c1Br
2. CCc1[nH]c2nc(Oc3cncc(C#N)c3)nc(Oc3cnc(N)nc3)c2c1Br
3. CCc1[nH]c2nc(Oc3ccc4nccnc4c3)nc(N3CCOCC3)c2c1Cl
4. CCc1[nH]c2nc(Oc3cnc4c(c3)ncn4C)nc(Oc3cnc4c(c3)ncn4C)c2c1Br
5. CCc1[nH]c2nc(Sc3cnc4cccnc4c3)nc(N3CC4CCNC4C3)c2c1Cl (centres unmarked)
6. CCc1[nH]c2nc(Sc3ccc4cc5c([n+]([O-])c4c3)CCNC5)nc(N3CC4C(N)C4C3)c2c1Cl (centres unmarked)

a:
1. 2
2. <=0.5
3. 2
4. <=0.5
5. <=0.5
6. <=0.5

Look at each molecule and report its MIC, SA.
1. CCc1[nH]c2nc(Sc3cnc4ccc[n+]([O-])c4c3)nc(N3CC4CNC4C3)c2c1Cl (centres unmarked)
2. CCc1[nH]c2nc(Sc3cnc4cccnc4c3)nc(N3CCC(CNS(=O)(=O)c4ccccc4)C3)c2c1Cl (centres unmarked)
3. CCc1[nH]c2nc(Oc3cncc(C#N)c3)nc(Oc3cc(O)cc(C#N)c3)c2c1Br

a:
<=0.5
<=0.5
<=0.5

Look at each molecule and report its MIC, SA.
1. CCc1[nH]c2nc(Oc3cncc(C#N)c3)nc(Oc3cccc(OC)c3)c2c1Br
2. CCc1[nH]c2nc(Sc3cnc4ncn(C)c(=O)c4c3)nc(N3CC4C(N)C4C3)c2c1C (centres unmarked)
3. CCc1[nH]c2nc(Sc3cnc4ccc[n+]([O-])c4c3)nc(N3CCC4CNC4C3)c2c1Cl (centres unmarked)
4. CCc1[nH]c2nc(Sc3cnc4ccc[n+]([O-])c4c3)nc(N3C[C@@H]4[C@@H](CN)[C@@H]4C3)c2c1Cl

a:
<=0.5
2
<=0.5
<=0.5

q: Please look at this molecule and report its MIC, SA: CCc1[nH]c2nc(N3CCN(c4cc(C(=O)OC)nc5ccc(Cl)cc45)CC3)ncc2c1Cl
a: >64

====

What MIC Spn52 was measured for each of the following?
System: S. pneumoniae ATCC 51916
Experiment: MIC, S. pneumoniae
Type: cell-based
Conditions: S. pneumoniae
Numbers only, in mg/L.

Worked examples, 5 compounds total:
>  <Compound>
CCc1[nH]c2nc(Sc3cccnc3)nc(NC[C@H](C)O)c2c1Cl.O=C(O)C(F)(F)F [700,273]

>  <MIC Spn52 (mg/L)>
16

$$$$
>  <Compound>
CCNC(=O)NCC1CN(c2nc(Sc3cnc4nccnc4c3)nc3[nH]c(CC)c(Cl)c23)C1 [700,491]

>  <MIC Spn52 (mg/L)>
1

$$$$
>  <Compound>
CCc1[nH]c2nc(Sc3cc(=O)[nH]c(=O)[nH]3)nc(N3CC(O)C3)c2c1Cl [700,359]

>  <MIC Spn52 (mg/L)>
8

$$$$
>  <Compound>
CCc1[nH]c2nc(Nc3cnc4c(c3)nnn4C)nc(OC)c2c1Br.O=C(O)C(F)(F)F [700,599]

>  <MIC Spn52 (mg/L)>
2

$$$$
>  <Compound>
CCc1[nH]c2nc(Sc3cnc4c(N)nc(N)nc4c3)nc(N(C)CCNC)c2c1Cl.O=C(O)C(F)(F)F.O=C(O)C(F)(F)F [700,472]

>  <MIC Spn52 (mg/L)>
64

$$$$

Look at each compound and report its MIC Spn52.
1. CCc1[nH]c2nc(Sc3cnc4nccnc4c3)nc(N3CC[C@@H](N(C)C)C3)c2c1Cl [700,430]
2. CCc1[nH]c2nc(Sc3cnc4nccnc4c3)nc(NCCCn3ccnc3)c2c1Cl [700,455]
3. CCOC(=O)Cn1c(=O)cc(Sc2nc(N3CC(O)C3)c3c(Br)c(CC)[nH]c3n2)[nH]c1=O [700,386]
4. CCNC(=O)NC1CN(c2nc(Sc3cnc4nccnc4c3)nc3[nH]c(CC)c(Cl)c23)C1 [700,490]
5. CCc1[nH]c2nc(Sc3cnc4nccnc4c3)nc(N3CC(NCc4cccnc4)C3)c2c1Cl [700,539]
6. CCc1[nH]c2nc(Sc3cnc4nccnc4c3)nc(N3CCC(C(O)c4cccs4)CC3)c2c1Cl.O=C(O)C(F)(F)F (stereo not shown) [700,656]
7. CCc1[nH]c2nc(Sc3cnc4cccnc4c3)nc(N3CC(C4(N)CC4)C3)c2c1Cl [700,706]

a:
32
2
8
1
1
2
2

====

Tested on: S. pneumoniae ATCC 51916
Test: MIC, S. pneumoniae
Type: cell-based
Details: S. pneumoniae
Metric: MIC Spn52 (µg/mL)
Give bare numbers, in µg/mL.

>  <Compound>
CCOc1nc(Sc2nc(C(=O)OC)cs2)nc2[nH]c(CC)c(Br)c12

>  <Study system>
S. pneumoniae ATCC 51916

>  <Display unit>
µg/mL

>  <MIC Spn52>
64

$$$$
>  <Compound>
CCOc1nc(Sc2nc(C(=O)O)cs2)nc2[nH]c(CC)c(Br)c12

>  <Study system>
S. pneumoniae ATCC 51916

>  <Display unit>
µg/mL

>  <MIC Spn52>
32

$$$$
>  <Compound>
CCc1[nH]c2nc(Sc3cnc4nccnc4c3)nc(N3CC(NC(=O)c4cnccn4)C3)c2c1Cl

>  <Study system>
S. pneumoniae ATCC 51916

>  <Display unit>
µg/mL

>  <MIC Spn52>
1

$$$$
>  <Compound>
CCc1[nH]c2nc(Sc3cnc4nccnc4c3)nc(N3CC(N4CCCC4)C3)c2c1Cl.O=C(O)C(F)(F)F.O=C(O)C(F)(F)F

>  <Study system>
S. pneumoniae ATCC 51916

>  <Display unit>
µg/mL

>  <MIC Spn52>
8

$$$$
>  <Compound>
CCc1[nH]c2nc(Oc3cccnc3)nc(N3CCN(C(C)=O)CC3)c2c1Cl.O=C(O)C(F)(F)F

>  <Study system>
S. pneumoniae ATCC 51916

>  <Display unit>
µg/mL

>  <MIC Spn52>
32

$$$$

Look at each compound and report its MIC Spn52.
1. CCc1[nH]c2nc(Sc3cnc4nccnc4c3)nc(N3CCC(N)CC3)c2c1Cl
2. CCc1[nH]c2nc(Sc3cnc4nccnc4c3)nc(N3CC(NC(=O)CNC4CCOC4=O)C3)c2c1Cl.O=C(O)C(F)(F)F (centres unmarked)

a:
[4, 32]
